Hey, just so you know, these numbers are from paper PMC8520056.

# procedure text: In vivo pharmacokinetic study after oral administration
# Design: species or system Sprague-Dawley rats
# particulars: male, Sprague-Dawley, rat, plasma, 40 mg/kg
recorded metric: k el (s⁻¹)
Write the answer as a number in s⁻¹, unit excluded.

# lookup: k el of C=C1CC[C@@H]2[C@](C)(CO)[C@H](O)CC[C@@]2(C)[C@@H]1C/C=C1/C(=O)OC[C@H]1O [AG, Andrographolide]
2e-05
